# Lookup of reported Pixel density-Bkg/area (24 hours) keyed by entry
# protocol_notes: Whole body autoradiography of 14C labeled peptides, renal cortex and blood
# Format: in vivo, mice
# study_conditions: renal cortex, 100 nmol 14C labeled peptide iv, 24 hours
Reply with the value as a number alone.

Use the examples below as a reference point.
Q. Which value of Pixel density-Bkg/area (24 hours) has been reported for GSGVPINVRSRGSRDSLDPSRRAGMRFGRSINSRSHSTP [SEQ ID NO: 119, reference compound] in the records?
A. 2.41E+06

Q. Which value of Pixel density-Bkg/area (24 hours) has been reported for GSSCARPRENCNRMNILCCRGECVCPTFGDCFCYGD [SEQ ID NO: 54] in the records?
A. 1.95E+06

Q. Which value of Pixel density-Bkg/area (24 hours) has been reported for GSSCEPGTTFRDRCNTCRCGSDGRSAACTLRACPQ [SEQ ID NO: 46] in the records?
A. 1.49E+06

Q. Which value of Pixel density-Bkg/area (24 hours) has been reported for GSGDCLPHLRRCRENNDCCSRRCRRRGANPERRCR [SEQ ID NO: 59] in the records?
A. 2.13E+06

Q. Which value of Pixel density-Bkg/area (24 hours) has been reported for GSQFTNVSCTTSRECWSVCQRLHNTSRGRCMNRRCRCYS [SEQ ID NO: 5] in the records?
A. 1.81E+06

Let us examine a further case.
Q. Which value of Pixel density-Bkg/area (24 hours) has been reported for GSSERDCIRHLQRCRENRDCCSRRCSRRGTNPERRCR [SEQ ID NO: 56] in the records?
A. 2.30E+06

---

# protocol_notes: Plasma creatinine, Jaffe reaction method (Example 14)
# Format: in vivo, mice
# study_conditions: Table 3; 100 nmol iv, 24 hours post-peptide administration
# Lookup of reported Plasma Creatinine keyed by entry
Kindly provide the numeric value in mg/dL only, without the unit symbol.

Q. Which value of Plasma Creatinine has been reported for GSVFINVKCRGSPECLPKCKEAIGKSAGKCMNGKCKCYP [SEQ ID NO: 36] in the records?
A. 0.4

Q. Which value of Plasma Creatinine has been reported for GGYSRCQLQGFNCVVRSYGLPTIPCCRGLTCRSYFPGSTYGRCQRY [SEQ ID NO: 53] in the records?
A. 0.35

Others:
Q. Which value of Plasma Creatinine has been reported for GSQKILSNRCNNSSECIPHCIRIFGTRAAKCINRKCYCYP [SEQ ID NO: 20] in the records?
A. 0.5

Q. Which value of Plasma Creatinine has been reported for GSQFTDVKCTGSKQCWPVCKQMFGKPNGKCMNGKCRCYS [SEQ ID NO: 26] in the records?
A. 0.33

Q. Which value of Plasma Creatinine has been reported for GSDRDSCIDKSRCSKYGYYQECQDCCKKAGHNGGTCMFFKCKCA [SEQ ID NO: 21] in the records?
A. 0.33

Q. Which value of Plasma Creatinine has been reported for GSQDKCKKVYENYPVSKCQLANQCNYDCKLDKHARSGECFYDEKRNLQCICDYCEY [SEQ ID NO: 39] in the records?
A. 0.32

Q. Which value of Plasma Creatinine has been reported for GSSFGLCRLRRGFCARGRCRFPSIPIGRCSRFVQCCRRVW [SEQ ID NO: 45] in the records?
A. 0.39

Q. Which value of Plasma Creatinine has been reported for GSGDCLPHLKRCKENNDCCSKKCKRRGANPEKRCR [SEQ ID NO: 18] in the records?
A. 0.43

---

# protocol_notes: Peptide stability to a reducing agent (DTT), RP-HPLC
# Format: physicochemical
# study_conditions: 10 mM DTT in PBS, room temperature, 30 minutes
measurement_kind: Reduction

Q. Which value of Reduction has been reported for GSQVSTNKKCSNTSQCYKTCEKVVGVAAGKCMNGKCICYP [SEQ ID NO: 37] in the records?
A. Not Resistant

Q. Which value of Reduction has been reported for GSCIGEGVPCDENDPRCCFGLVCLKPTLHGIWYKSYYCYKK [SEQ ID NO: 30] in the records?
A. Not Resistant

Q. Which value of Reduction has been reported for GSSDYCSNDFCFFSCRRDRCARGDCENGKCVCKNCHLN [SEQ ID NO: 29] in the records?
A. Not Resistant

---

# Tested on: trypsin
# protocol_notes: Peptide stability in the presence of trypsin, RP-HPLC
# Format: in vitro ADME
# study_conditions: 5 μg trypsin, pH 7.0, 30 minutes at 37.5° C.
# Procedure: This example describes peptide stability in the presence of pepsin, trypsin, a reducing agent, or elevated temperature. Peptides were first suspended in 500 µl of ddH2O to a stock concentration of 2 mg/ml. […] These reactions were then quenched with 5 μg of soybean trypsin inhibitor (I) and, in some cases, 10 mM dithiothreitol (DTT). […] Temperature stability was tested by incubating peptides in non-reducing conditions at 70° C. for 1 hour. Stability was evaluated by RP-HPLC.
measurement_kind: Trypsin

Use the examples below as a reference point.
Q. Which value of Trypsin has been reported for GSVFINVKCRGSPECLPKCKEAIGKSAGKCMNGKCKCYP [SEQ ID NO: 36] in the records?
A. Not Resistant

Q. Which value of Trypsin has been reported for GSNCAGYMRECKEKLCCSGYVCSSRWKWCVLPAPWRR [SEQ ID NO: 25] in the records?
A. Partially Resistant

Q. Which value of Trypsin has been reported for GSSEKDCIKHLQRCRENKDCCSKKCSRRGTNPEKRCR [SEQ ID NO: 9] in the records?
A. Partially Resistant

Q. Which value of Trypsin has been reported for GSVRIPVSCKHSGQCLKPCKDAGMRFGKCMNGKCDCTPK [SEQ ID NO: 12] in the records?
A. Not Resistant

Q. Which value of Trypsin has been reported for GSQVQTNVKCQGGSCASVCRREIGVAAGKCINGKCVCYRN [SEQ ID NO: 17] in the records?
A. Partially Resistant

Others:
Q. Which value of Trypsin has been reported for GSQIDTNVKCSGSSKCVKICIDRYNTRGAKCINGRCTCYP [SEQ ID NO: 27] in the records?
A. Not Resistant

Q. Which value of Trypsin has been reported for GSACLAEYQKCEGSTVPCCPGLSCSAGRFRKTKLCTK [SEQ ID NO: 32] in the records?
A. Not Resistant

Q. Which value of Trypsin has been reported for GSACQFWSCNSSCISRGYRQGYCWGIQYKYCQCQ [SEQ ID NO: 34] in the records?
A. Partially Resistant

Q. Which value of Trypsin has been reported for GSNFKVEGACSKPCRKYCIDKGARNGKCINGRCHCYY [SEQ ID NO: 19] in the records?
A. Partially Resistant

Q. Which value of Trypsin has been reported for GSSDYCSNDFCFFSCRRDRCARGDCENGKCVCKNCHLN [SEQ ID NO: 29] in the records?
A. Partially Resistant

Q. Which value of Trypsin has been reported for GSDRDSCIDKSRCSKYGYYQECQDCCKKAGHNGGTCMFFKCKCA [SEQ ID NO: 21] in the records?
A. Partially Resistant

Q. Which value of Trypsin has been reported for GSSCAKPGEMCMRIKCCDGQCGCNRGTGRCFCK [SEQ ID NO: 31] in the records?
A. Partially Resistant

Q. Which value of Trypsin has been reported for GSECLEIFKACNPSNDQCCKSSKLVCSRKTRWCKYQIG [SEQ ID NO: 38] in the records?
A. Not Resistant

Q. Which value of Trypsin has been reported for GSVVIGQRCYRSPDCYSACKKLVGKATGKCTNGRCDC [SEQ ID NO: 33] in the records?
A. Not Resistant

Q. Which value of Trypsin has been reported for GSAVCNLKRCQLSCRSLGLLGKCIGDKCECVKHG [SEQ ID NO: 22] in the records?
A. Partially Resistant

Q. Which value of Trypsin has been reported for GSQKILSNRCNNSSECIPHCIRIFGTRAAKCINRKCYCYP [SEQ ID NO: 20] in the records?
A. Partially Resistant

Q. Which value of Trypsin has been reported for GSISIGIKCSPSIDLCEGQCRIRKYFTGYCSGDTCHCSG [SEQ ID NO: 7] in the records?
A. Partially Resistant

Q. Which value of Trypsin has been reported for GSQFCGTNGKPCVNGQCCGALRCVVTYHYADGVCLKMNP [SEQ ID NO: 23] in the records?
A. Partially Resistant

Q. Which value of Trypsin has been reported for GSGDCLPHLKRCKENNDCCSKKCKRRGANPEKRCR [SEQ ID NO: 18] in the records?
A. Partially Resistant

---

# protocol_notes: Plasma BUN, assessment of renal injury (Example 14)
# Format: in vivo, mice
# study_conditions: Table 3; 100 nmol iv (approximately 16 mg/kg), 24 hours post-peptide administration
measurement_kind: Plasma BUN (mg/dL)
Kindly provide the numeric value in mg/dL only, without the unit symbol.

Use the examples below as a reference point.
Q. Which value of Plasma BUN has been reported for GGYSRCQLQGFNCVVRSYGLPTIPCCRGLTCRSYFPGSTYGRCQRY [SEQ ID NO: 53] in the records?
A. 20.5

Q. Which value of Plasma BUN has been reported for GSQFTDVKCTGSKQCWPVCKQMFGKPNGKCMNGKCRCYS [SEQ ID NO: 26] in the records?
A. 19

Let us examine a further case.
Q. Which value of Plasma BUN has been reported for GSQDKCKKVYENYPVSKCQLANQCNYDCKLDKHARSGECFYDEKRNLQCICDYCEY [SEQ ID NO: 39] in the records?
A. 20.5

Values from patent US20200330603A1
